- assay_target: T1, Monomeric human CD48-mmH (human)
- T1 construct: also called soluble CD48 expressed with a myc-myc-hexa-histidine C-terminal tag [mmH]
- T1 chain: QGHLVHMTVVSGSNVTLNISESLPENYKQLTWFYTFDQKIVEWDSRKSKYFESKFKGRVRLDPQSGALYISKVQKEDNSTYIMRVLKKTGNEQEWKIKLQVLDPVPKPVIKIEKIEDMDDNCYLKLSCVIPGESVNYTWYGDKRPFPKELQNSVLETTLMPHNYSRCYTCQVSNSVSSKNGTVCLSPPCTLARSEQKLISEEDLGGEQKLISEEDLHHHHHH
- method_summary: SPR (Biacore T100), 25 C, antibody captured by anti-Fc, monomeric CD48-mmH in solution
Would you kindly list T½ for each of these binders?
Numbers only, in min.

Some entries whose results are on file:
binder	T½ (min)
H4H1713N (antibody, human IgG4, V domains shown, Human IgG4 Fc (prefix H4H)) VH: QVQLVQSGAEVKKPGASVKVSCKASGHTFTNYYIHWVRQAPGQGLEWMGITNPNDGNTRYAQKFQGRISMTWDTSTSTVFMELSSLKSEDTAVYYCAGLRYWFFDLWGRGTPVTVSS VL: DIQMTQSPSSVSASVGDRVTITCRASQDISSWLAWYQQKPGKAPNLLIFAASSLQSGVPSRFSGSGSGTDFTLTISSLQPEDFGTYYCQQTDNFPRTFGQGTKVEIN	67
H4H1775P (antibody, human IgG4, V domains shown, Human IgG4 Fc (prefix H4H)) VH: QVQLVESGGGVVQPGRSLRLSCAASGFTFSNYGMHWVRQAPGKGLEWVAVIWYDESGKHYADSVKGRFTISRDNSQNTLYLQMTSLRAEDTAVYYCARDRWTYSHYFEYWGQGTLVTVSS VL: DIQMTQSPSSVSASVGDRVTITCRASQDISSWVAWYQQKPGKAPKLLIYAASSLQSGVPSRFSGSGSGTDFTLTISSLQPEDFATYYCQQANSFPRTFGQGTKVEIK	235
H4H1778P (antibody, human IgG4, V domains shown, Human IgG4 Fc (prefix H4H)) VH: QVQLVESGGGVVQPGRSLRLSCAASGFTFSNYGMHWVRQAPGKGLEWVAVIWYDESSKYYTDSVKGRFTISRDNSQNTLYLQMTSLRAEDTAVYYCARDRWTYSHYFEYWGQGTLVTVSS VL: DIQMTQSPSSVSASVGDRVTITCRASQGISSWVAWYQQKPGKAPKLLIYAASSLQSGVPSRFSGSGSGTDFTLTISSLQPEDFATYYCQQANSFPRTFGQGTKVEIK	246
H4H1779P (antibody, human IgG4, V domains shown, Human IgG4 Fc (prefix H4H)) VH: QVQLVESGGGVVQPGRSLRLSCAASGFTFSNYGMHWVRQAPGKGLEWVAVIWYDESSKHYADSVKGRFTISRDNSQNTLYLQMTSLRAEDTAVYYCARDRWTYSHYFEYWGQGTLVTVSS VL: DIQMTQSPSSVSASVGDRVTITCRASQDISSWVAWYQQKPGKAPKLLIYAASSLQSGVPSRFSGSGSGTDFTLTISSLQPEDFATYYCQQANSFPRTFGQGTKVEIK	296

Attention now turns to another entry.
Supply measured T½ of H2M1710N (antibody, mouse IgG2, V domains shown, Human variable domains, mouse IgG2 Fc (prefix H2M)) VH: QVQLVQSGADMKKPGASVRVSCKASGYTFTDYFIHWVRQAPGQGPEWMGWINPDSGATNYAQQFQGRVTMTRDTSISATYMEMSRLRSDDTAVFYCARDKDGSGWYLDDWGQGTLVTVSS VL: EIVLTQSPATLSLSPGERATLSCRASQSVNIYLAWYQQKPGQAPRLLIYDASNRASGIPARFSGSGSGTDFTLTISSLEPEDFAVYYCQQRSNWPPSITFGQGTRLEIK in your reply.
8
